Reference for the values: ChEMBL document CHEMBL2429720

# Test system: Escherichia coli
# methodSummary: Antibacterial activity against Escherichia coli ATCC 25922 after 18 to 24 hrs by agar dilution method
# Type: functional
measurementLabel: MIC (µg/mL)

The following compounds have reported results that may help.
{"smilesEntry": "COC(=O)CSc1c(-c2ccc(C)cc2)nc2ccccc2c1-c1ccccc1", "MIC [µg/mL]": 25}
{"smilesEntry": "COC(=O)CSc1c(-c2ccccc2)nc2ccccc2c1-c1ccccc1", "MIC [µg/mL]": 25}

(A) COC(=O)CSc1c(-c2ccc(Br)cc2)nc2ccccc2c1-c1ccccc1
(B) COC(=O)CSc1c(-c2ccc(OC)cc2)nc2ccccc2c1-c1ccccc1
(C) Cc1ccc(-c2nc3ccccc3c(-c3ccccc3)c2Sc2cc3ccccc3oc2=O)cc1
(Q) Rank items: key MIC, increasing. The reply should contain the labels ordered as requested.
(A) A, B, C

* * *

# Test system: Escherichia coli
# methodSummary: Antibacterial activity against Escherichia coli ATCC 25922 after 18 to 24 hrs by agar dilution method
# Assay type: functional
measurementLabel: MIC (µg/mL)

{"smilesEntry": "O=c1oc2ccccc2cc1Sc1c(-c2ccc(-c3ccccc3)cc2)nc2ccccc2c1-c1ccccc1", "MIC (µg/mL)": 50}
{"smilesEntry": "O=c1oc2ccccc2cc1Sc1c(-c2ccc(Cl)cc2)nc2ccccc2c1-c1ccccc1", "MIC (µg/mL)": 25}

(I) O=c1oc2ccccc2cc1Sc1c(-c2ccc3ccccc3c2)nc2ccccc2c1-c1ccccc1
(II) COC(=O)CSc1c(-c2cccc(OC)c2)nc2ccccc2c1-c1ccccc1
(Q) Given the listed items, does I or II have the lesser reported MIC? API: response body contains the label of the selected item.
(A) II
(II: 12.5 µg/mL, I: 50 µg/mL)

(I) COC(=O)CSc1c(-c2ccc([N+](=O)[O-])cc2)nc2ccccc2c1-c1ccccc1
(II) COC(=O)CSc1c(-c2ccc(-c3ccccc3)cc2)nc2ccccc2c1-c1ccccc1
(III) COC(=O)CSc1c(-c2ccc(Cl)cc2)nc2ccccc2c1-c1ccccc1
(Q) Rank items: key MIC, increasing. The reply should contain the labels ordered as requested.
(A) I, III, II
(I: 6.25 µg/mL, III: 12.5 µg/mL, II: 25 µg/mL)

* * *

zone of inhibition at 100 µg/disc reference
# Tested on: Escherichia coli
# methodSummary: Antibacterial activity against Escherichia coli ATCC 25922 at 100 ug/disk after 24 hrs by agar disk diffusion method
# Type: functional
# setupConditions: ATCC 25922, 24 h, read-out: DIZ
Return type: number; implicit unit mm.

The following compounds have reported results that may help.
{"smilesEntry": "COC(=O)CSc1c(-c2ccc(C)cc2)nc2ccccc2c1-c1ccccc1", "targetUnderTest": "Escherichia coli", "unitOfMeasure": "mm", "zone of inhibition at 100 µg/disc": 11}
{"smilesEntry": "COC(=O)CSc1c(-c2ccc(-c3ccccc3)cc2)nc2ccccc2c1-c1ccccc1", "targetUnderTest": "Escherichia coli", "unitOfMeasure": "mm", "zone of inhibition at 100 µg/disc": 10}
{"smilesEntry": "COC(=O)CSc1c(-c2cccc(Br)c2)nc2ccccc2c1-c1ccccc1", "targetUnderTest": "Escherichia coli", "unitOfMeasure": "mm", "zone of inhibition at 100 µg/disc": 15}
{"smilesEntry": "COC(=O)CSc1c(-c2ccccc2)nc2ccccc2c1-c1ccccc1", "targetUnderTest": "Escherichia coli", "unitOfMeasure": "mm", "zone of inhibition at 100 µg/disc": 15}
{"smilesEntry": "Cc1ccc(-c2nc3ccccc3c(-c3ccccc3)c2Sc2cc3ccccc3oc2=O)cc1", "targetUnderTest": "Escherichia coli", "unitOfMeasure": "mm", "zone of inhibition at 100 µg/disc": 13}
{"smilesEntry": "COC(=O)CSc1c(-c2ccc3ccccc3c2)nc2ccccc2c1-c1ccccc1", "targetUnderTest": "Escherichia coli", "unitOfMeasure": "mm", "zone of inhibition at 100 µg/disc": 10}
{"smilesEntry": "O=c1oc2ccccc2cc1Sc1c(-c2ccc(Cl)cc2)nc2ccccc2c1-c1ccccc1", "targetUnderTest": "Escherichia coli", "unitOfMeasure": "mm", "zone of inhibition at 100 µg/disc": 12}
{"smilesEntry": "COC(=O)CSc1c(-c2ccc(Cl)cc2)nc2ccccc2c1-c1ccccc1", "targetUnderTest": "Escherichia coli", "unitOfMeasure": "mm", "zone of inhibition at 100 µg/disc": 12}

(Q) Can you share its zone of inhibition at 100 µg/disc? I mean this compound: `O=c1oc2ccccc2cc1Sc1c(-c2ccc(Br)cc2)nc2ccccc2c1-c1ccccc1`
(A) 18

(Q) Now consider `COC(=O)CSc1c(-c2ccc([N+](=O)[O-])cc2)nc2ccccc2c1-c1ccccc1` .
(A) 18

(Q) Now consider `COC(=O)CSc1c(-c2cccc(OC)c2)nc2ccccc2c1-c1ccccc1` .
(A) 15

(Q) Now consider `COC(=O)CSc1c(-c2ccc(OC)cc2)nc2ccccc2c1-c1ccccc1` .
(A) 15

(Q) Now consider `COc1ccc(-c2nc3ccccc3c(-c3ccccc3)c2Sc2cc3ccccc3oc2=O)cc1` .
(A) 12

* * *

# Tested on: Escherichia coli
# methodSummary: Antibacterial activity against Escherichia coli ATCC 25922 after 18 to 24 hrs by agar dilution method
# Assay type: functional
measurementLabel: MIC (µg/mL)

The following molecules have reported results that may help.
{"smilesEntry": "O=c1oc2ccccc2cc1Sc1c(-c2ccccc2)nc2ccccc2c1-c1ccccc1", "targetUnderTest": "Escherichia coli", "MIC / µg/mL": 25}
{"smilesEntry": "O=c1oc2ccccc2cc1Sc1c(-c2ccc([N+](=O)[O-])cc2)nc2ccccc2c1-c1ccccc1", "targetUnderTest": "Escherichia coli", "MIC / µg/mL": 12.5}

(a) COC(=O)CSc1c(-c2cccc(Br)c2)nc2ccccc2c1-c1ccccc1
(b) COc1ccc(-c2nc3ccccc3c(-c3ccccc3)c2Sc2cc3ccccc3oc2=O)cc1
(c) COC(=O)CSc1c(-c2ccc3ccccc3c2)nc2ccccc2c1-c1ccccc1
(Q) Descending sort on MIC required. The reply should contain the labels ordered as requested.
(A) c, b, a
(c: 50 µg/mL, b: 25 µg/mL, a: 12.5 µg/mL)

* * *

zone of inhibition at 100 µg/disc reference
# System: Escherichia coli
# methodSummary: Antibacterial activity against Escherichia coli ATCC 25922 at 100 ug/disk after 24 hrs by agar disk diffusion method
# Assay type: functional
# setupConditions: ATCC 25922, 24 h, read-out: DIZ
Return type: number; implicit unit mm.

The following compounds have reported results that may help.
{"smilesEntry": "O=c1oc2ccccc2cc1Sc1c(-c2ccccc2)nc2ccccc2c1-c1ccccc1", "unitOfMeasure": "mm", "zone of inhibition at 100 µg/disc": 13}
{"smilesEntry": "COC(=O)CSc1c(-c2ccc(Br)cc2)nc2ccccc2c1-c1ccccc1", "unitOfMeasure": "mm", "zone of inhibition at 100 µg/disc": 20}
{"smilesEntry": "O=c1oc2ccccc2cc1Sc1c(-c2ccc([N+](=O)[O-])cc2)nc2ccccc2c1-c1ccccc1", "unitOfMeasure": "mm", "zone of inhibition at 100 µg/disc": 15}

Next, consider the following compound.
(Q) Can you share its zone of inhibition at 100 µg/disc? I mean this compound: `COC(=O)CSc1c(-c2cccc(Cl)c2)nc2ccccc2c1-c1ccccc1`
(A) 18
